src = ChEMBL document CHEMBL3885881

- Organism: Rattus norvegicus
- experiment: DrugMatrix - Regimen: Daily Repeat
- Format: toxicity, organism-based, Sprague-Dawley
- Parameters: regimen Daily Repeat, gender Male, age 6-8 weeks
- conditions.used: in vivo, po, 0 mg/kg, 120 h, tissue Plasma, route oral GAVAGE, dose level Control, time 5 day, vehicle .5 % CMC
Kindly state SODIUM for each of the entries shown.
Quick reminder: number only, in MEQ/L, skip the unit.

Any idea what its SODIUM is? The molecule is `CN(C)CCN(Cc1cccs1)c1ccccn1` 151.25

Any idea what its SODIUM is? The molecule is `CN1CCN(C2=Nc3cc(Cl)ccc3Nc3ccccc32)CC1` 150.5

Any idea what its SODIUM is? The molecule is `COc1cc(OC)c(C(=O)CCCN2CCCC2)c(OC)c1` 142.65

Any idea what its SODIUM is? The molecule is `C[C@@H]1O[C@@H](O[C@H]2C[C@@H](O)[C@]3(CO)[C@H]4[C@H](O)C[C@]5(C)[C@@H](C6=CC(=O)OC6)CC[C@]5(O)[C@@H]4CC[C@]3(O)C2)[C@H](O)[C@H](O)[C@H]1O` 144.68

Any idea what its SODIUM is? The molecule is `CN1C(=O)CN=C(c2ccccc2)c2cc([N+](=O)[O-])ccc21` 148.33

Any idea what its SODIUM is? The molecule is `C[C@H]1[C@H](NC(=O)/C(=N\OC(C)(C)C(=O)O)c2csc(N)n2)C(=O)N1S(=O)(=O)O` 143.8

Any idea what its SODIUM is? The molecule is `C[C@]12CC[C@@H]3c4ccc(O)cc4CC[C@H]3[C@@H]1C[C@@H](O)[C@@H]2O` 143.62

Any idea what its SODIUM is? The molecule is `COc1ccc2c(c1OC)C(=O)O[C@@H]2[C@H]1c2c(cc3c(c2OC)OCO3)CCN1C` 151.5
